- Study Target: KRAS^WT (Homo sapiens)
- Construct: GST-tagged KRAS WT or mutant proteins (amino acids 2-169)
- Sequence (P01116 2-169 isoform P01116-2): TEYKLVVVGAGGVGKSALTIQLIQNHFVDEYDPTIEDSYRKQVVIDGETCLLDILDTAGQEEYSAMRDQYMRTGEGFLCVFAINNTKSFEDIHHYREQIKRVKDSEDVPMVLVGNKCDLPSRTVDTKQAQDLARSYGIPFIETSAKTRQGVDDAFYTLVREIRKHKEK
- Test Method Notes: KRAS nucleotide exchange assay (SOS1-mediated, HTRF)
- Condition: KRAS 20 nM, SOS1 7.5 nM, labeled GTP 0.15 µM
- Description: Evaluation of the inhibitory effect of compounds on SOS1-mediated nucleotide exchange activity of KRAS^WT, KRAS^G12D, and KRAS^G12V mutants […] • 1. […] The reaction was monitored at Ex/Em=(337/665; 337/620) using a Pherastar Plate Reader (BMG). • 6. The HTRF signal was analyzed approximately 25 minutes after the start of the reaction (G12V reacted for 60 minutes). • 7. […]
Assay Metric: IC50 (nM)
The figure you give is taken to be in nM; do not add the unit.

In plain terms, CCc1c(F)ccc2cc(O)cc(-c3nc4c5c(nc(OC[C@@]67CCCN6C[C@H](F)C7)nc5c3F)N3CCNC[C@@H]3CCO4)c12 [Example 1] has a documented IC50 of 6.5

###

- Study Target: KRAS G12C (Homo sapiens, UniProt P01116, G12C)
- Construct: GST-tagged KRAS WT or mutant proteins (amino acids 2-169)
- Sequence (P01116 2-169 isoform P01116-2 G12C): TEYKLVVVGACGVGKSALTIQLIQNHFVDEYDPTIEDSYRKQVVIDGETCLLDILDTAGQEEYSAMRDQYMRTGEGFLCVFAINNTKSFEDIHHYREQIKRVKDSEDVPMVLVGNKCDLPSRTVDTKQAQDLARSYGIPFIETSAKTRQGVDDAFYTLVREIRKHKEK
- Test Method Notes: KRAS nucleotide exchange assay (SOS1-mediated, HTRF)
- Condition: conditions for G12C not described
Assay Metric: IC50 (nM)
Numeric answer only, unit nM assumed.

The reported IC50 of the molecule Nc1nc2c(-c3c(Cl)c4c5c(nc(OC[C@@]67CCCN6C[C@H](F)C7)nc5c3F)N3CCCCCC3CO4)ccc(F)c2s1 (stereo partly shown) was 2.36

###

- Study Target: KRAS^G12V (Homo sapiens, UniProt P01116, G12V)
- Construct: GST-tagged KRAS WT or mutant proteins (amino acids 2-169)
- Sequence (P01116 2-169 isoform P01116-2 G12V): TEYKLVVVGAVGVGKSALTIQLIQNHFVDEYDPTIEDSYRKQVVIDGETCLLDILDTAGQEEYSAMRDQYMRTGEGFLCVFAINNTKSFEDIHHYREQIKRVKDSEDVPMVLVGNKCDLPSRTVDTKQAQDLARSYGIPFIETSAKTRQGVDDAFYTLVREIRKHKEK
- Test Method Notes: KRAS nucleotide exchange assay (SOS1-mediated, HTRF)
- Condition: KRAS 20 nM, SOS1 50 nM, labeled GTP 0.15 µM, reacted 60 minutes
Assay Metric: IC50 (nM)
Write the answer as a number in nM, unit excluded.

molecule Nc1nc2c(-c3c(Cl)c4c5c(nc(OC[C@@]67CCCN6C[C@H](F)C7)nc5c3F)N3CCCCCC3CO4)ccc(F)c2s1 (some centres unmarked) , IC50 observed: 5.9

Sure, the documented IC50 for C#Cc1c(F)ccc2cc(O)cc(-c3nc4c5c(nc(OC[C@@]67CCCN6C[C@H](F)C7)nc5c3F)N3CCNC[C@@H]3CCO4)c12 is 2.89

###

Give measured pIC50 for each item. Keep answers brief.
- Test system: AsPC-1 pancreatic cancer (KRAS G12D mutation) cells
- Test Method Notes: Cell proliferation assay (CellTiter-Glo cell viability)
- Type: cell-based
- Condition: Homo sapiens, ASPC1, 72 h, AsPC-1 cells, CellTiter-Glo 2.0
pIC50: −log10 of the molar value.

Kindly note the recorded pIC50 for Nc1nc2c(-c3c(Cl)c4c5c(nc(OC[C@@]67CCCN6C[C@H](F)C7)nc5c3F)N3CCNC[C@@H]3CCO4)ccc(F)c2s1 [Example 3] , which is 4.70 to 5.70

In plain terms, Nc1nc2c(-c3c(Cl)c4c5c(nc(OC[C@@]67CCCN6C[C@H](F)C7)nc5c3F)N3CCCOC[C@H]3CO4)ccc(F)c2s1 [Example 7] has a documented pIC50 of > 5.70

// pIC50 value for N#Cc1c(N)sc2c(F)ccc(-c3c(Cl)c4c5c(nc(OC[C@@]67CCCN6C[C@H](F)C7)nc5c3F)N3CCCCC[C@H]3CO4)c12 [Example 11b] : > 5.70
